// data source = patent US8962609B2

Biological target: IKKε (Homo sapiens (Human), UniProt Q14164)
Sequence (Q14164 whole entry): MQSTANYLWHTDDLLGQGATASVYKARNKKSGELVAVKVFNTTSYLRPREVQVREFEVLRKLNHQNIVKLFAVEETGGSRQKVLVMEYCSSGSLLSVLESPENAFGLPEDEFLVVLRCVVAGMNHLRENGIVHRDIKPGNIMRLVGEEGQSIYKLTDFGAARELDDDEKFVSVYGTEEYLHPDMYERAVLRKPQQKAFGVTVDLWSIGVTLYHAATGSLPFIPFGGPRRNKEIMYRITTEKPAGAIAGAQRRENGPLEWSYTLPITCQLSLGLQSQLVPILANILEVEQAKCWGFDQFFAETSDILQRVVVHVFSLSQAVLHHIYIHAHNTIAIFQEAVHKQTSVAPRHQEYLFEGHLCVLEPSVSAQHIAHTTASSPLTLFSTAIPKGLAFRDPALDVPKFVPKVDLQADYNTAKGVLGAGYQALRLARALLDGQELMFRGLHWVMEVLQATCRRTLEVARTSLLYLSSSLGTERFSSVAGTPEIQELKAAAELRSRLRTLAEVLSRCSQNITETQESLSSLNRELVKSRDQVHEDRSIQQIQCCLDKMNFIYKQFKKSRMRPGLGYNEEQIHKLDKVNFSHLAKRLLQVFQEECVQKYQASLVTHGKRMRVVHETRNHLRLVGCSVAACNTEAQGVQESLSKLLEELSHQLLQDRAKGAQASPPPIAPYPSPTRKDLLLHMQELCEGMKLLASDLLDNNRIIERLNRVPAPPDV
Test: IKKε time-resolved fluorescence Lanthascreen kinase inhibition assay
Type: biochemical
Conditions: 20 μM ATP (apparent Km), 2 nM kinase, 1 hr; values are activity bands; read-out: Inhibition of IKKε IC50
Reported IC50 values follow for various compounds

Look up IKKε (Homo sapiens (Human), UniProt Q14164) data: IC50 of `CN(C)CCNc1ccc(Nc2nccc(-c3ccc(N4CCC(O)CC4)c(C#N)c3)n2)cn1` , then report it. 30 to 300 nM

Specify IC50 for `N#Cc1cc(-c2ccnc(Nc3cccc(F)c3)n2)ccc1N1CCCC1` , system IKKε (Homo sapiens (Human), UniProt Q14164). 30 to 300 nM

Give IC50 only, for `CN(C)CCN(C)c1ccc(Nc2nccc(-c3ccc(N4CCCC4)c(C#N)c3)n2)cn1` , using IKKε (Homo sapiens (Human), UniProt Q14164) data. < 30 nM

Output reported IC50 of the compound `Cc1csc(Nc2nccc(-c3ccc(N4CCCC4)c(C#N)c3)n2)n1` on IKKε (Homo sapiens (Human), UniProt Q14164). 300 to 9000 nM

Give IKKε (Homo sapiens (Human), UniProt Q14164) IC50 for the following compound: `N#Cc1cc(-c2ccnc(Nc3ccccn3)n2)ccc1N1CCCC1` 300 to 9000 nM

Others:
State, for IKKε (Homo sapiens (Human), UniProt Q14164), measured IC50 of the compound listed here: `CN(C)CCNc1ccc(Nc2nccc(-c3ccc(N4CCC[C@@H]4C(N)=O)c(C#N)c3)n2)cn1` 30 to 300 nM

Give measured IC50 for `Cc1cc(C(N)=O)ccc1Nc1nccc(-c2ccc(N3CCCC3)c(C#N)c2)n1` (IKKε (Homo sapiens (Human), UniProt Q14164)). 30 to 300 nM

State recorded IC50 with IKKε (Homo sapiens (Human), UniProt Q14164), entry `Cn1nccc1Nc1nccc(-c2ccc(N3CC[C@H](O)C3)c(C#N)c2)n1` , no comment. 30 to 300 nM

Write down measured IC50 (IKKε (Homo sapiens (Human), UniProt Q14164)) for this compound. `Cc1cc(Nc2nccc(-c3ccc(N4CCCC4)c(C#N)c3)n2)on1` 30 to 300 nM

State IC50 (IKKε (Homo sapiens (Human), UniProt Q14164)) of `N#Cc1cc(-c2ccnc(Nc3cccc(C(N)=O)c3)n2)ccc1N1CCCC1` . < 30 nM

// fetch IC50 for `Cn1ccc(Nc2nccc(-c3ccc(N4CCCC4)c(C#N)c3)n2)n1` ; system: IKKε (Homo sapiens (Human), UniProt Q14164) 30 to 300 nM

Lab note: IKKε (Homo sapiens (Human), UniProt Q14164) assay, enter IC50 for `CC(=O)Nc1ccc(Nc2nccc(-c3ccc(N4CCC[C@@H]4C(N)=O)c(C#N)c3)n2)cn1` here 30 to 300 nM

Lab note: IKKε (Homo sapiens (Human), UniProt Q14164) assay, enter IC50 for `CN(C)CCNc1ccc(Nc2nccc(-c3ccc(N4CC[C@H](O)C4)c(C#N)c3)n2)cn1` here < 30 nM

Output reported IC50 of the compound `CN(C)CCNc1ccc(Nc2nccc(-c3ccc(N4CCC(C(N)=O)CC4)c(C#N)c3)n2)cn1` on IKKε (Homo sapiens (Human), UniProt Q14164). < 30 nM

Under IKKε (Homo sapiens (Human), UniProt Q14164), report IC50 for `CN1CCN(c2ccc(Nc3nccc(-c4ccc(N5CCC[C@@H]5C(N)=O)c(C#N)c4)n3)cn2)CC1` < 30 nM

Enter IC50 (test system IKKε (Homo sapiens (Human), UniProt Q14164)) for `CN1CCC(Nc2ccc(Nc3nccc(-c4ccc(N5CC[C@@H](F)C5)c(C#N)c4)n3)cn2)CC1` < 30 nM
